Protocol Summary: Solubility of the compound at 5 mM at pH 1.2 by HPLC analysis
Type: physicochemical
Assay Setup: buffer
Provide the reported solubility at 5000 µM of each item.
Express it in µM; write the number only.

Memo: `Cc1c(CN2CC[Si](C)(C)CC2)cc(-c2ccc(Cl)cc2)n1-c1ccc(Cl)cc1` , reported solubility at 5000 µM: 38.8

The reported solubility at 5000 µM of the molecule `Cc1c(CN2CCN(C)CC2)cc(-c2ccc(Cl)cc2)n1-c1ccc(Cl)cc1` was 45.2

GET /value?item= `Cc1ccc(-c2cc(CN3CC[Si](C)(C)CC3)c(C)n2-c2ccc(F)cc2)cc1` &field=solubility at 5000 µM returns 43.7

Entry `CCc1ccc(-n2c(-c3ccc(Cl)cc3)cc(CN3CC[Si](C)(C)CC3)c2C)cc1` — recorded solubility at 5000 µM = 9.86

* * *

Protocol Summary: Metabolic stability in human plasma at 50 uM measured after 60 mins by LC-MS/MS analysis
Format: ADME, cell-free
Assay Setup: read-out: Stability
Measurement Kind: remaining at 1 h, 50 µM (%)
API: value field is a number in %; no unit string.

Record summary for `CCc1ccc(-n2c(-c3ccc(Cl)cc3)cc(CN3CC[Si](C)(C)CC3)c2C)cc1` : reported remaining at 1 h, 50 µM = 95.7

Note to self: remaining at 1 h, 50 µM recorded for `Cc1c(CN2CC[Si](C)(C)CC2)cc(-c2ccc(Cl)cc2)n1-c1ccc(Cl)cc1` was 99.4

The compound identified as `Cc1ccc(-c2cc(CN3CC[Si](C)(C)CC3)c(C)n2-c2ccc(F)cc2)cc1` registered its remaining at 1 h, 50 µM at 96.9

* * *

Protocol Summary: Selectivity index, ratio of IC50 for cytotoxicity against mouse primary astrocytes cells to MIC for antitubercular activity against Mycobacterium tuberculosis H37Rv
Format: toxicity, cell-based
Assay Setup: read-out: Ratio IC50
Measurement Kind: selectivity ratio

The recorded selectivity ratio for entry `CCc1ccc(-n2c(-c3ccc(Cl)cc3)cc(CN3CC[Si](C)(C)CC3)c2C)cc1` equals > 250

Notebook: `Cc1c(CN2CC[Si](C)(C)CC2)cc(-c2ccc(Cl)cc2)n1-c1ccc(Cl)cc1` , selectivity ratio read as > 250

The recorded selectivity ratio for `Cc1ccc(-c2cc(CN3CC[Si](C)(C)CC3)c(C)n2-c2ccc(F)cc2)cc1` is > 250

* * *

Protocol Summary: Metabolic stability in human liver microsomes at 50 uM measured after 30 mins by LC-MS/MS analysis
Format: ADME, Microsome
Assay Setup: read-out: Stability
So I've got a bunch of compounds here, and I need their remaining at 0.5 h, 50 µM values.

Just so you know, measured remaining at 0.5 h, 50 µM for `CCc1ccc(-n2c(-c3ccc(Cl)cc3)cc(CN3CC[Si](C)(C)CC3)c2C)cc1` came out at 60.8%

In plain terms, `Cc1c(CN2CC[Si](C)(C)CC2)cc(-c2ccc(Cl)cc2)n1-c1ccc(Cl)cc1` has a documented remaining at 0.5 h, 50 µM of 56.7%

# remaining at 0.5 h, 50 µM (compound: `Cc1c(CN2CCN(C)CC2)cc(-c2ccc(Cl)cc2)n1-c1ccc(Cl)cc1` ) is 79.8%

Looking up `Cc1ccc(-c2cc(CN3CC[Si](C)(C)CC3)c(C)n2-c2ccc(F)cc2)cc1` , I see its remaining at 0.5 h, 50 µM listed as 36.4%

* * *

Protocol Summary: Solubility of the compound at 5 mM at pH 7.4 by HPLC analysis
Assay type: physicochemical
Assay Setup: buffer
Measurement Kind: solubility at 5000 µM (µM)
Express it in µM; write the number only.

solubility at 5000 µM measured on `CCc1ccc(-n2c(-c3ccc(Cl)cc3)cc(CN3CC[Si](C)(C)CC3)c2C)cc1` = 1.19

Entry `Cc1ccc(-c2cc(CN3CC[Si](C)(C)CC3)c(C)n2-c2ccc(F)cc2)cc1` — recorded solubility at 5000 µM = 26.8

Quick note, solubility at 5000 µM for `Cc1c(CN2CCN(C)CC2)cc(-c2ccc(Cl)cc2)n1-c1ccc(Cl)cc1` landed at 26.7

Entry under test: `Cc1c(CN2CC[Si](C)(C)CC2)cc(-c2ccc(Cl)cc2)n1-c1ccc(Cl)cc1` . Its solubility at 5000 µM was 4.73

* * *

Protocol Summary: Selectivity index, ratio of IC50 for cytotoxicity against HEK293 cells to MIC for antitubercular activity against Mycobacterium tuberculosis H37Rv
Assay type: toxicity, cell-based
Assay Setup: human, read-out: Ratio IC50
Measurement Kind: selectivity ratio

Measured selectivity ratio of `Cc1ccc(-c2cc(CN3CC[Si](C)(C)CC3)c(C)n2-c2ccc(F)cc2)cc1` : > 250

The compound identified as `Cc1c(CN2CC[Si](C)(C)CC2)cc(-c2ccc(Cl)cc2)n1-c1ccc(Cl)cc1` registered its selectivity ratio at > 250

So for `CCc1ccc(-n2c(-c3ccc(Cl)cc3)cc(CN3CC[Si](C)(C)CC3)c2C)cc1` , the logged selectivity ratio turned out to be > 250

* * *

Protocol Summary: Protein binding in human plasma at 150 uM by equilibrium dialysis method
Assay type: ADME, cell-free
Assay Setup: read-out: PPB (converted)
Measurement Kind: fraction unbound at 150 µM
Answer with a number only.

fraction unbound at 150 µM measured on `Cc1c(CN2CC[Si](C)(C)CC2)cc(-c2ccc(Cl)cc2)n1-c1ccc(Cl)cc1` = 0.0002

// fraction unbound at 150 µM lookup, compound = `Cc1ccc(-c2cc(CN3CC[Si](C)(C)CC3)c(C)n2-c2ccc(F)cc2)cc1` , result: 0.0009

For record `CCc1ccc(-n2c(-c3ccc(Cl)cc3)cc(CN3CC[Si](C)(C)CC3)c2C)cc1` the listed fraction unbound at 150 µM is 0.0002

* * *

Exercise: state measured solubility at 5000 µM for each of the compounds provided.
Protocol Summary: Solubility of the compound at 5 mM at pH 10.2 by HPLC analysis
Type: physicochemical
Assay Setup: buffer
Number only, in µM; omit the unit.

Notebook: `Cc1c(CN2CCN(C)CC2)cc(-c2ccc(Cl)cc2)n1-c1ccc(Cl)cc1` , solubility at 5000 µM read as 5.38

Please fill in: solubility at 5000 µM reported for `CCc1ccc(-n2c(-c3ccc(Cl)cc3)cc(CN3CC[Si](C)(C)CC3)c2C)cc1` = 12.9

So, `Cc1ccc(-c2cc(CN3CC[Si](C)(C)CC3)c(C)n2-c2ccc(F)cc2)cc1` ? Its solubility at 5000 µM was 3.13

* * *

Protocol Summary: Solubility of the compound at 5 mM at pH 2.2 by HPLC analysis
Format: physicochemical
Assay Setup: buffer
For each record, write down the corresponding solubility at 5000 µM.
Express the result in µM but write the number alone.

// `Cc1ccc(-c2cc(CN3CC[Si](C)(C)CC3)c(C)n2-c2ccc(F)cc2)cc1` : solubility at 5000 µM value = 42.1

Value of solubility at 5000 µM reported for the compound `Cc1c(CN2CC[Si](C)(C)CC2)cc(-c2ccc(Cl)cc2)n1-c1ccc(Cl)cc1` is 39.1

Lab note: `Cc1c(CN2CCN(C)CC2)cc(-c2ccc(Cl)cc2)n1-c1ccc(Cl)cc1` gave solubility at 5000 µM of 42.2

// solubility at 5000 µM value for `CCc1ccc(-n2c(-c3ccc(Cl)cc3)cc(CN3CC[Si](C)(C)CC3)c2C)cc1` : 37.2
